Hello, the source for this data is paper PMC8041999, in case you need it.

B1: FLAG-tagged KIR2DL3, full-length, wild type, on 293T cells [human] / HLA-C*07:02-RL9 tetramer (phycoerythrin-conjugated) [modified: biotin (enzymatically, with biotin ligase)] [human | not stated] (parent complex)
chain 1: HEGVHRKPSLLAHPGPLVKSEETVILQCWSDVRFQHFLLHREGKFKDTLHLIGEHHDGVSKANFSIGPMMQDLAGTYRCYGSVTHSPYQLSAPSDPLDIVITGLYEKPSLSAQPGPTVLAGESVTLSCSSRSSYDMYHLSREGEAHERRFSAGPKVNGTFQADFPLGPATHGGTYRCFGSFRDSPYEWSNSSDPLLVSVTGNPSNSWPSPTEPSSETGNPRHLHVLIGTSVVIILFILLLFFLLHRWCCNKKNAVVMDQEPAGNRTVNREDSDEQDPQEVTYAQLNHCVFTQRKITRPSQRPKTPPTDIIVYTELPNAEP
chain 2: not shown
chain 3: not shown
chain 4: RYRPGTVAL

# Variants of: B1
# assay: flow cytometry, HLA tetramer staining of transfected 293T cells; percentage tetramer+ normalised to percentage FLAG+; read off a plot
recorded-metric: ratio to parent

Given item chain 1 F45A , the value recorded as its ratio to parent is ~0.72

Given item chain 1 S133A , the value recorded as its ratio to parent is ~1.2

Given item chain 1 S132A , the value recorded as its ratio to parent is ~1.1

Given item chain 1 E21A , the value recorded as its ratio to parent is ~0.97

Given item chain 1 D183A , the value recorded as its ratio to parent is ~0.33

Given item chain 1 K44A , the value recorded as its ratio to parent is ~0.9

Given item chain 1 M70A , the value recorded as its ratio to parent is ~1.3

Given item chain 1 E106A , the value recorded as its ratio to parent is ~0.85

Given item chain 1 D72A , the value recorded as its ratio to parent is ~1.1

Given item chain 1 Y105A , the value recorded as its ratio to parent is ~0.02

Given item chain 1 D135A , the value recorded as its ratio to parent is ~0.57

Given item chain 1 L104A , the value recorded as its ratio to parent is ~0.4
